tested on: PANC-1; assay: Antiproliferative activity against human PANC-1 cells assessed as cell growth inhibition at 2 uM measured after 48 to 72 hrs by MTT assay relative to control; format: functional; conditions: time 48-72 hrs, read-out: GI
inhibition of growth at 2 µM of 20% or higher: Yes. Under 20%: No.

{"CHEMICAL SMILES": "CCS(=O)(=O)c1ccc(Oc2ccc(C)c(-c3c(C)noc3C)c2)c(-c2cn(C)c(=O)c3cncn23)c1", "SYSTEM": "PANC-1", "CATEGORY LABEL": "Yes"}
{"CHEMICAL SMILES": "CCS(=O)(=O)c1ccc(Oc2cccc(-c3c(C)noc3C)c2)c(-c2cn(C)c(=O)c3cncn23)c1", "SYSTEM": "PANC-1", "CATEGORY LABEL": "Yes"}
{"CHEMICAL SMILES": "CCS(=O)(=O)c1ccc(Oc2cc(-c3c(C)noc3C)ccc2C)c(-c2cn(C)c(=O)c3cncn23)c1", "SYSTEM": "PANC-1", "CATEGORY LABEL": "Yes"}
{"CHEMICAL SMILES": "CCS(=O)(=O)Nc1ccc(Oc2ccccc2F)c(-c2cn(C)c(=O)c3cncn23)c1", "SYSTEM": "PANC-1", "CATEGORY LABEL": "No"}
{"CHEMICAL SMILES": "Cc1sc2c(c1C)C(c1ccc(Cl)cc1)=N[C@@H](CC(=O)C(C)(C)C)c1nnc(C)n1-2", "SYSTEM": "PANC-1", "CATEGORY LABEL": "No"}

Given CCS(=O)(=O)c1ccc(Oc2cc(-c3c(C)noc3C)ccc2OC)c(-c2cn(C)c(=O)c3cncn23)c1 , state whether its inhibition of growth at 2 µM is at least 20%.
No

----------
system: BXPC-3; assay: Antiproliferative activity against human BXPC-3 cells assessed as cell growth inhibition at 2 uM measured after 48 to 72 hrs by MTT assay relative to control; assay type: functional; conditions: time 48-72 hrs, read-out: GI
Property: inhibition of growth at 2 µM; scope: individual molecules
Please give a number only; it is taken to be in %.

Examples with answers:
{"CHEMICAL SMILES": "CCS(=O)(=O)c1ccc(Oc2cc(-c3c(C)noc3C)ccc2C)c(-c2cn(C)c(=O)c3cncn23)c1", "READOUT UNITS": "%", "inhibition of growth at 2 µM": 30.2}
{"CHEMICAL SMILES": "Cc1sc2c(c1C)C(c1ccc(Cl)cc1)=N[C@@H](CC(=O)C(C)(C)C)c1nnc(C)n1-2", "READOUT UNITS": "%", "inhibition of growth at 2 µM": 31.1}
{"CHEMICAL SMILES": "CCS(=O)(=O)c1ccc(Oc2cccc(-c3c(C)noc3C)c2)c(-c2cn(C)c(=O)c3cncn23)c1", "READOUT UNITS": "%", "inhibition of growth at 2 µM": 41.2}
{"CHEMICAL SMILES": "CCS(=O)(=O)c1ccc(Oc2cc(-c3c(C)noc3C)ccc2F)c(-c2cn(C)c(=O)c3cncn23)c1", "READOUT UNITS": "%", "inhibition of growth at 2 µM": 33.2}

For the molecule CCS(=O)(=O)c1ccc(Oc2cc(-c3c(C)noc3C)ccc2OC)c(-c2cn(C)c(=O)c3cncn23)c1 , what inhibition of growth at 2 µM is on record?
42.2

Another molecule: CCS(=O)(=O)c1ccc(Oc2ccc(C)c(-c3c(C)noc3C)c2)c(-c2cn(C)c(=O)c3cncn23)c1
35.8

Another molecule: CCS(=O)(=O)Nc1ccc(Oc2ccccc2F)c(-c2cn(C)c(=O)c3cncn23)c1
38.4
